- Assayed Target: DLG4_3, P78352
- Sequence (P78352 306-403): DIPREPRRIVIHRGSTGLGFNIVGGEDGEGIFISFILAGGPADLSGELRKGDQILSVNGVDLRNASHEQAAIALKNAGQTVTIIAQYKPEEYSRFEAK
- Assay Summary: holdup assay
- Set-up: key: below the threshold = too weak to quantify, mostly under pKd 3.1 to 4
- Test Context: plain residues with an end cap or a label only (N-terminal biotin on a linker: ado-ado)
Measured Attribute: pKd

Use these answered entries as a reference point.
DGVNEKVSCV [HTR2A, P28223] | below the threshold
REEPDHSTEV [CCRL2, O00421] | below the threshold
PSHPRLQTHV [KIRREL2, Q6UWL6] | 3.86
ARSAAASNYV [CLDN4, O14493] | below the threshold
TNSRHGETTV [FZD2, Q14332] | 4.24
DRIQSCLSDA [SBF1, O95248] | below the threshold
NNNVVKVDSV [MTNR1A, P48039] | below the threshold

Next item in the queue.
Inquiry: Return the recorded pKd value; entry: DPAESMESLV [PTPRG, P23470]
Reply text: below the threshold
